Hello, the source for this data is patent US12600732B2, in case you need it.

System: primary human T cells
Test: T cell activation assay, CD25 and CD69 staining (flow cytometry)
Type: cell-based
Settings: 333 nM; fold-change of response relative to baseline
For each of the compounds below, state its CD25 Staining Anti-CD3/Anti-CD28 Stimulation.
One number for each entry.

CN1CCN([C@H]2CCCN(c3cnc(C(N)=O)c(Nc4cnn(C5CCN(CC6CN(c7ccc8c(c7)C(=O)N(C7CCC(=O)NC7=O)C8=O)C6)CC5)c4)n3)C2)C1=O (stereo partly drawn); 0.44
NC(=O)c1ncc(N2CCCCC2)nc1Nc1ccc(C2CCN(C[C@@H]3CCN(c4ccc5c(c4)C(=O)N(C4CCC(=O)NC4=O)C5=O)C3)CC2)cc1 (stereo partly drawn); 0.61

Given CN1CCN([C@H]2CCCN(c3cnc(C(N)=O)c(Nc4ccc(C5CCN(CC6CCN(c7ccc(C(=O)NC8CCC(=O)NC8=O)nc7)CC6)CC5)cc4)n3)C2)C1=O (stereo partly drawn) , state its recorded CD25 Staining Anti-CD3/Anti-CD28 Stimulation.
0.55

====

Test: PK data for BTK CTMs (in vivo plasma concentrations)
Conditions: Mouse Balb/c, 1 mg/kg IV, read-out: Volume of Distribution
Assign Vd to each entry below.
Give bare numbers, in L/kg.

NC(=O)c1ncc(N2CCCCC2)nc1Nc1ccc(C2CCN(C[C@@H]3CCN(c4ccc5c(c4)C(=O)N(C4CCC(=O)NC4=O)C5=O)C3)CC2)cc1 (some centres unmarked); 1
CN1CCN([C@@H]2CCCN(c3cnc(C(N)=O)c(Nc4ccc(N5CCC6(CC5)CCN(c5ccc7c(c5)C(=O)N(C5CCC(=O)NC5=O)C7=O)CC6)cc4)n3)C2)C1=O (some centres unmarked); 0.48
CN1CCN([C@@H]2CCCN(c3cnc(C(N)=O)c(Nc4ccc(C5CCN(C6CN(Cc7ccc8c(c7)CN(C7CCC(=O)NC7=O)C8=O)C6)CC5)cc4)n3)C2)C1=O (some centres unmarked); 7.7
CN1CCN([C@@H]2CCCN(c3cnc(C(N)=O)c(Nc4ccc(C5CN(C6CCN(c7ccc8c(c7)C(=O)N(C7CCC(=O)NC7=O)C8=O)CC6)C5)cc4)n3)C2)C1=O (some centres unmarked); 1.2

Next compound, Vd to be filled in.
Which value of Vd has been reported for CN1CCN([C@@H]2CCCN(c3cnc(C(N)=O)c(Nc4ccc(C5CCN(CC6CCN(c7ccc(-c8nn(C9CCC(=O)NC9=O)c(=O)n8C)cc7)CC6)CC5)cc4)n3)C2)C1=O (some centres unmarked) in the records?
0.77
